The measurements presented in this section are drawn from patent US9278962B2.

- Tested on: rabbit skeletal myofibrils (approximately 90% fast fibers)
- protocolSummary: Activation of fast skeletal myofibrils (PUMA coupled-enzyme ATPase assay, AC1.4)
- Assay type: biochemical
- measurementContext: Table 2; concentration at which the compound increased enzymatic activity by 40%; calcium at pCa25
reportedProperty: Mean AC1.4

Solved entries (count: 5):
- CN1CCN(CCc2nsc(NCC(C)(C)c3ccc(F)cc3)n2)CC1: C (C=10-20 uM)
- COc1ccc(-c2nsc(NCC(C)(C)c3ccc(F)cc3)n2)c(Cl)c1: B (B=1-10 uM)
- C=Cc1nsc(NCC(C)(C)c2ccc(F)cc2)n1: B (B=1-10 uM)
- Cn1cc(-c2nsc(NCC(C)(C)c3ccc(F)cc3)n2)cn1: B (B=1-10 uM)
- COc1ccc(Cc2nsc(NCC(C)(C)c3ccc(F)cc3)n2)cc1: A (A=<1 uM)

(Q) So what does the record say about Mean AC1.4 for CC(C)(C)OC(=O)N1CCN(Cc2nsc(NCC(C)(C)c3ccc(F)cc3)n2)CC1 ?
(A) D (D=>20 uM)

(Q) Likewise for Clc1ccc(Cc2nsc(NCCc3cccc(Cl)c3)n2)cc1 ?
(A) D (D=>20 uM)

(Q) Also CC(C)(CNc1nc(Cc2ccc(O)cc2)ns1)c1ccc(Cl)cc1 ?
(A) A (A=<1 uM)

(Q) What about COc1cccc(Cc2nsc(NCCc3ccc(S(N)(=O)=O)cc3)n2)c1 ?
(A) D (D=>20 uM)

(Q) Cool, now CC(=O)N1CCC(CNc2nc(-c3cccc(C(N)=O)c3)ns2)(c2ccc(F)cc2)CC1
(A) D (D=>20 uM)

(Q) And for N#Cc1cccc(-c2nsc(NCC(=O)C3CCCCN3)n2)c1 (centres unmarked) ?
(A) D (D=>20 uM)

(Q) What about COc1ccc(CCNc2nc(Cc3cccc(OC)c3)ns2)cc1 ?
(A) D (D=>20 uM)

(Q) Cool, now CC(C)(CNc1nc(-c2cccc(C(N)=O)c2)ns1)c1ccc(F)cc1
(A) A (A=<1 uM)

(Q) What do you get for CC(C)(CNc1nc(-c2ccc(CO)cc2)ns1)c1ccc(F)cc1 ?
(A) B (B=1-10 uM)

###

- System: rabbit skeletal myofibrils (approximately 90% fast fibers)
- protocolSummary: Activation of fast skeletal myofibrils (PUMA coupled-enzyme ATPase assay, AC1.4)
- Assay type: biochemical
- measurementContext: Table 2; concentration at which the compound increased enzymatic activity by 40%; calcium at pCa25
reportedProperty: Mean AC1.4

- COc1cccc(Cc2nsc(NCCc3ccc(F)c(F)c3)n2)c1: B (B=1-10 uM)
- CC(C)(CNc1nc(CN2CCN(S(C)(=O)=O)CC2)ns1)c1ccc(F)cc1: C (C=10-20 uM)
- CC(C)(CNc1nc(CCC(=O)N2CC[C@@H](O)C2)ns1)c1ccc(F)cc1: D (D=>20 uM)
- CC(=O)NCc1nsc(NCC(C)(C)c2ccc(F)cc2)n1: C (C=10-20 uM)
- Fc1ccc(Cc2nsc(NCCc3ccc(Cl)cc3)n2)cc1: B (B=1-10 uM)

(Q) Which Mean AC1.4 is reported for this compound? CC(C)Nc1nsc(NCC(C)(C)c2ccc(F)cc2)n1
(A) C (C=10-20 uM)

(Q) Would you kindly repeat that for C[C@H](CNc1nc(Cc2cccc(O)c2)ns1)c1ccc(F)cc1 ?
(A) A (A=<1 uM)

(Q) Thanks! And COc1cccc(Cc2nsc(NCc3ccc(Cl)cc3)n2)c1 ?
(A) D (D=>20 uM)

(Q) One more compound: Oc1cccc(Cc2nsc(NCc3ccc(Cl)c(Cl)c3)n2)c1
(A) D (D=>20 uM)

(Q) Field entry: COc1cccc(Cc2nsc(N(C)CC(C)(C)c3ccc(F)cc3)n2)c1
(A) D (D=>20 uM)

(Q) Further, for COc1ccc(Cc2nsc(NCC(C)(C)c3ccc(Cl)cc3)n2)cc1 ?
(A) A (A=<1 uM)

###

- System: rabbit skeletal myofibrils (approximately 90% fast fibers)
- protocolSummary: Activation of fast skeletal myofibrils (PUMA coupled-enzyme ATPase assay, AC1.4)
- Type: biochemical
- measurementContext: Table 2; concentration at which the compound increased enzymatic activity by 40%; calcium at pCa25
reportedProperty: Mean AC1.4

• COC(=O)NCCCc1nsc(NCC(C)(C)c2ccc(F)cc2)n1 = B (B=1-10 uM)
• Fc1ccc(Cc2nsc(NCc3ccc(Cl)cc3)n2)cc1 = D (D=>20 uM)
• CCOC(=O)/C=C/c1nsc(NCC(C)(C)c2ccc(F)cc2)n1 = D (D=>20 uM)
• CC(C)(CNc1nc(-c2ccccn2)ns1)c1ccc(F)cc1 = B (B=1-10 uM)

###

- Tested on: rabbit skeletal myofibrils (approximately 90% fast fibers)
- protocolSummary: Activation of fast skeletal myofibrils (PUMA coupled-enzyme ATPase assay, AC1.4)
- Type: biochemical
- measurementContext: Table 2; concentration at which the compound increased enzymatic activity by 40%; calcium at pCa25
- Text: […] Fast fiber activators were identified by measuring the enzymatic activity of muscle myofibril preparations using the proprietary PUMA™ (see, e.g., U.S. Pat. Nos. 6,410,254, 6,743,599, 7,202,051, and 7,378,254) assay system. […] This assay regenerates myosin-produced ADP into ATP by oxidizing NADH, producing an absorbance change at 340 nm. […]
reportedProperty: Mean AC1.4

• NC(=O)c1cccc(-c2nsc(NCC3(c4ccc(F)cc4)CCNCC3)n2)c1 = D (D=>20 uM)
• CC(C)(CNc1nc(CCC(=O)N2CC[C@H](O)C2)ns1)c1ccc(F)cc1 = D (D=>20 uM)
• COc1ccc(CCNc2nc(Cc3ccc(F)cc3)ns2)cc1 = D (D=>20 uM)
• CC(C)(CNc1nc(CN2CCC(O)CC2)ns1)c1ccc(F)cc1 = D (D=>20 uM)
• NC(=O)c1ccc(F)c(-c2nsc(NC3(c4ncccc4F)CCC3)n2)c1 = D (D=>20 uM)
• Nc1ccc(CCNc2nc(Cc3ccc(F)cc3)ns2)cc1 = D (D=>20 uM)

(Q) # query: Mean AC1.4 of entry COC(=O)NCc1nsc(NCC(C)(C)c2ccc(F)cc2)n1
(A) B (B=1-10 uM)

(Q) Then this compound: CNC(=O)c1cccc(-c2nsc(NCC(C)(C)c3ccc(F)cc3)n2)c1
(A) A (A=<1 uM)

(Q) Consider next the compound CC(C)(CNc1nc(-c2ccc(C#N)c(F)c2)ns1)c1ccc(F)cc1 in the same way.
(A) B (B=1-10 uM)

(Q) Okay, and CC(C)(CNc1nc(-c2cccnc2)ns1)c1ccc(F)cc1 ?
(A) B (B=1-10 uM)

(Q) CNC(=O)c1ccc(-c2nsc(NCC(C)(C)c3ccc(F)cc3)n2)cc1 , same question.
(A) A (A=<1 uM)

(Q) // next record CC(C)(CNc1nc(Cl)ns1)c1ccc(F)cc1
(A) B (B=1-10 uM)

(Q) Next: CC(C)(CNc1nc(CN2CCCC(O)C2)ns1)c1ccc(F)cc1 (stereo not shown)
(A) D (D=>20 uM)

###

- Tested on: rabbit skeletal myofibrils (approximately 90% fast fibers)
- protocolSummary: Activation of fast skeletal myofibrils (PUMA coupled-enzyme ATPase assay, AC1.4)
- Format: biochemical
- measurementContext: Table 3; concentration at which the compound increased enzymatic activity by 40%; calcium at pCa25
reportedProperty: Mean AC1.4

• C=Cc1ccc(F)c(-c2nnc(NC[C@]3(c4ncccc4F)C[C@H](F)C3)s2)c1 = A (A=<1 uM)
• Cc1ccc(C(N)=O)cc1-c1nnc(NC[C@]2(c3ncccc3F)C[C@H](F)C2)s1 = A (A=<1 uM)

###

- System: rabbit skeletal myofibrils (approximately 90% fast fibers)
- protocolSummary: Activation of fast skeletal myofibrils (PUMA coupled-enzyme ATPase assay, AC1.4)
- Assay type: biochemical
- measurementContext: Table 2; concentration at which the compound increased enzymatic activity by 40%; calcium at pCa25
reportedProperty: Mean AC1.4

• CN(CCO)Cc1nsc(NCC(C)(C)c2ccc(F)cc2)n1 = D (D=>20 uM)
• COc1cncc(-c2nsc(NCC(C)(C)c3ccc(F)cc3)n2)c1 = B (B=1-10 uM)
• COc1cccc(Cc2nsc(NCCc3ccc(F)cc3)n2)c1 = B (B=1-10 uM)
• CC(C)(CNc1nc(CN2CCNCC2)ns1)c1ccc(F)cc1 = C (C=10-20 uM)
• CC(C)(CNc1nc(CCC(=O)N2CCC(O)CC2)ns1)c1ccc(F)cc1 = D (D=>20 uM)
• CC(C)(CNc1ncns1)c1ccc(F)cc1 = B (B=1-10 uM)

(Q) For rabbit skeletal myofibrils (approximately 90% fast fibers), provide Mean AC1.4 of Fc1ccc(Cc2nsc(NCc3ccc(Cl)c(Cl)c3)n2)cc1 please.
(A) D (D=>20 uM)

(Q) Ok, now CN(C)Cc1nsc(NCC(C)(C)c2ccc(F)cc2)n1
(A) D (D=>20 uM)

(Q) Moving on to the next compound: CC(C)(CNc1nc(CCN2CCC(O)CC2)ns1)c1ccc(F)cc1
(A) D (D=>20 uM)

(Q) // same read-out, input: CCOC(=O)CCc1nsc(NCC(C)(C)c2ccc(F)cc2)n1
(A) B (B=1-10 uM)

(Q) # iterate: COc1cccc(Cc2nsc(NCCc3cccc(C(F)(F)F)c3)n2)c1
(A) D (D=>20 uM)

(Q) Moving on to the next compound: CC(C)(CNc1nc(Cc2ccc(O)cc2)ns1)c1ccc(F)cc1
(A) A (A=<1 uM)

(Q) Another compound to look at: CC(C)(CNc1nc(-c2cncc(C(N)=O)c2)ns1)c1ccc(F)cc1
(A) A (A=<1 uM)

(Q) Please give the result for Cc1nsc(NC(=O)C(C)(C)c2ccc(F)cc2)n1 too.
(A) D (D=>20 uM)

(Q) Try this compound next: Oc1cccc(Cc2nsc(NCCc3ccc(Cl)cc3)n2)c1
(A) B (B=1-10 uM)

(Q) Another compound: Clc1ccc(CCNc2nc(Cc3ccc(Cl)cc3)ns2)cc1
(A) C (C=10-20 uM)

(Q) And the next one, CC(C)(CNc1nc(Cc2cccc(O)c2)ns1)c1ccc(F)cc1 ?
(A) A (A=<1 uM)

(Q) Next entry: CC(C)(CNc1nc(CN2CCN(C(=O)CO)CC2)ns1)c1ccc(F)cc1
(A) D (D=>20 uM)

(Q) N#Cc1cccc(-c2nsc(NCCc3ccc(F)cc3)n2)c1 ?
(A) D (D=>20 uM)

(Q) Now try CC(C)(CNc1nc(Cc2cccc(O)c2)ns1)c1ccc(Cl)cc1 .
(A) A (A=<1 uM)
